Source: patent US20250333467A1

system-name: T1, human RXFP1 (human, UniProt Q9HBX9 1-757)
T1 sequence (looked up): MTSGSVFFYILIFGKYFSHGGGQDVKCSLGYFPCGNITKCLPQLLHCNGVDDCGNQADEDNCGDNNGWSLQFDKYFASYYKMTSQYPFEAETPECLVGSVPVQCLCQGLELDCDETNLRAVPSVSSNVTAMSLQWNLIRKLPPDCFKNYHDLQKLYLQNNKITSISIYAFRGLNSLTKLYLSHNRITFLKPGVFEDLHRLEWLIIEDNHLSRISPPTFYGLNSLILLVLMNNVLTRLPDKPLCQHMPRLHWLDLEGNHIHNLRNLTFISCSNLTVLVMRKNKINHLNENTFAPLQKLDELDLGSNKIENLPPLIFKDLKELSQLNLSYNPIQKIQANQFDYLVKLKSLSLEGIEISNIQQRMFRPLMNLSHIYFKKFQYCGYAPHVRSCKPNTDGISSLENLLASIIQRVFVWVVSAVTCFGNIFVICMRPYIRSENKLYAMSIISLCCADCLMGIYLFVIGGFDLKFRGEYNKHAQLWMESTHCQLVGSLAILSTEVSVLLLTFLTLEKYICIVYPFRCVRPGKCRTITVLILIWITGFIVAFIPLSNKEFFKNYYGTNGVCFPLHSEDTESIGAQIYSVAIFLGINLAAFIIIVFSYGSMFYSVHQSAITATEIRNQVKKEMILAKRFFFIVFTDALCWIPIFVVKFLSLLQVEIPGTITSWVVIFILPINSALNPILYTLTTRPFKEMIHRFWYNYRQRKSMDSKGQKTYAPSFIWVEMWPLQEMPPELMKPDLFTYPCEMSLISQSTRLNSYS
test-details: cell-based or functional assay
readout: Potency (cAMP, transient hRXFP1 in HEK293)

{"columns": ["binder", "reported"],
 "data": [
  ["SEQ ID NO: 88 (Fc fusion) DKTHTCPPCPAPEAAGGPSVFLFPPKPKDTLMISRTPEVTCVVVDVSHEDPEVKFNWYVDGVEVHNAKTKPREEQYNSTYRVVSVLTVLHQDWLNGKEYKCKVSNKALAAPIEKTISKAKGQPREPQVYTLPPSRDELTKNQVSLTCLVKGFYPSDIAVEWESNGQPENNYKTTPPVLDSDGSFFLYSKLTVDKSRWQQGNVFSCSVLHEALHSHYTQKSLSLSPGKGGSDSWQEEVIKLCGRELVRAQIAICGKSTASDAAGAQADAGARQLYSALANKCCHVGCTKRSLAQFC", "1.4 nM"]
]}
